Reported pKi values for a set of compounds
TARGET UNDER TEST: MDMX (Homo sapiens)
Sequence (O15151 1-125): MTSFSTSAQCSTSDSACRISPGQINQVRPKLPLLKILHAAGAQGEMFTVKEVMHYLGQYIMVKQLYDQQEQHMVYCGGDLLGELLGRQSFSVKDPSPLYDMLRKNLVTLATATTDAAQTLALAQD
TEST NAME: Competitive fluorescence polarization assay for MDMX
Format: binding
RECORDED CONDITIONS: competitive FP assay, read-out: Ki (MDMX)
pKi: −log10 of the molar value. Where a SMILES comes first, the peptide text is derived from it. Bridges are numbered along the chain shown (N, C = ends). [ ]: non-standard residue; d: D form. R8 = C=CCCCCCC[C@@](C)(N)C(=O)O; Cha = N[C@@H](CC1CCCCC1)C(=O)O; S5 = C=CCCC[C@](C)(N)C(=O)O; Nle = CCCC[C@H](N)C(=O)O; Ac3c = NC1(C(=O)O)CC1

COMPOUND: CC(=O)N[C@@H](CC(C)C)C(=O)N[C@H](C(=O)N[C@@H](Cc1ccc(F)c(F)c1)C(=O)N[C@]1(C)CCCCCCC=CCCC[C@@](C)(C(=O)N[C@@H](CO)C(=O)N[C@@H](C)C(=O)N[C@@H](C)C(N)=O)NC(=O)[C@H](CC(C)C)NC(=O)[C@H](CCC(N)=O)NC(=O)[C@H](C)NC(=O)[C@H](Cc2c[nH]c3ccccc23)NC(=O)[C@H](Cc2ccc(O)cc2)NC(=O)[C@H](CCC(=O)O)NC1=O)[C@@H](C)O (single isomer, unassigned) [compound 158]
TARGET UNDER TEST: MDMX (Homo sapiens)
pKi: 7.00 to 8.00
--
COMPOUND: CC(=O)N[C@@H](Cc1ccccc1)C(=O)N[C@]1(C)CCCCCCC=CCCC[C@@](C)(C(=O)N[C@@H](C)C(=O)N[C@@H](C)C(=O)N[C@@H](CC2CCCCC2)C(N)=O)NC(=O)[C@H](CC(C)C)NC(=O)C2(CC2)NC(=O)[C@H](CCC(=O)O)NC(=O)[C@H](Cc2c[nH]c3ccccc23)NC(=O)[C@H](Cc2ccc(O)cc2)NC(=O)[C@H](C)NC1=O [compound 21] (Ac-F[R8]AYWE[Ac3c]L[S5]AA[Cha]-NH2; staple 2-9)
TARGET UNDER TEST: MDMX (Homo sapiens)
pKi: 7.00 to 8.00
--
COMPOUND: CCCC[C@H](NC(=O)[C@H](C)NC(=O)[C@H](C)NC(=O)[C@]1(C)CCCC=CCCCCCC[C@@](C)(NC(=O)[C@H](Cc2ccccc2)NC(=O)[C@@H](NC(=O)[C@H](C)NC(=O)[C@H](C)NC(C)=O)[C@@H](C)O)C(=O)N[C@@H](CCC(=O)O)C(=O)N[C@@H](Cc2ccc(O)cc2)C(=O)N[C@@H](Cc2c[nH]c3ccccc23)C(=O)N[C@@H](C)C(=O)N[C@@H](CCC(N)=O)C(=O)N[C@@H](CC(C)C)C(=O)N1)C(=O)N[C@@H](C)C(N)=O [compound 374] (Ac-AATF[R8]EYWAQL[S5]AA[Nle]A-NH2; staple 5-12)
TARGET UNDER TEST: MDMX (Homo sapiens)
pKi: > 8.00
